Biological target: recombinant soluble homotrimeric HA of A/swine/Ontario/01911-2/99 (H4N6) (Influenza A virus A/Swine/Ontario/01911-2/99 (H4N6))
Assay: trimeric HA microarray, transfection supernatant set 3
Settings: remark: other sources report otherwise
Endpoint label: Trimeric HA Binding: RLU (RLU)

Binder	Unit descriptor	Measured number
TCN-529 (5297_H01) (antibody, V domains shown) VH: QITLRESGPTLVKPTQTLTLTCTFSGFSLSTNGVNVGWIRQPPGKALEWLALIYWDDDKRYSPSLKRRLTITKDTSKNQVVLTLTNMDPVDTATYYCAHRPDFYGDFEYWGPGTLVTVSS VL: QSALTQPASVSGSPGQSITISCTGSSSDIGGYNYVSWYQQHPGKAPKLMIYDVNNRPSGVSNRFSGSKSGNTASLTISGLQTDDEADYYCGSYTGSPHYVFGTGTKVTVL	RLU	45
TCN-532 (5262_H18) (antibody, V domains shown) VH: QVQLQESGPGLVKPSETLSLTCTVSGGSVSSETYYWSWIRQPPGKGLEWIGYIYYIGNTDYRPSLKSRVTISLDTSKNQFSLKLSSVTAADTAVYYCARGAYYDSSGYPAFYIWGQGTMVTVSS VL: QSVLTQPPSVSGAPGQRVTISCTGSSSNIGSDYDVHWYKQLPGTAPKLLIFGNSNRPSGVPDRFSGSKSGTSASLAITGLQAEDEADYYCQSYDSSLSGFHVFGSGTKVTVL	RLU	29
TCN-504 (3251_K17) (antibody, V domains shown) VH: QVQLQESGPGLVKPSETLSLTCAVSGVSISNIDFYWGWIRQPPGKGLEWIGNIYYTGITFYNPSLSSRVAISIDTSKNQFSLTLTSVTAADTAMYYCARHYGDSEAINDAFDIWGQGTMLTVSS VL: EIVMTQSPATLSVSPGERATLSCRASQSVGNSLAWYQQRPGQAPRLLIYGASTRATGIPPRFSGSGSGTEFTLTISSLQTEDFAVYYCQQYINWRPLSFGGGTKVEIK	RLU	34500
